Reported apparent KD of MS2 coat protein values are given for each entry in this list.
Test system: MS2 coat protein
Experiment: apparent KD of MS2 coat protein; designed switch direction (-1 OFF switch, 1 ON switch): 1; higher = weaker reporter binding
Condition Info: input ligand: none

[
  {
    "Sequence Code": "UACAAUCUAUCUGAGGAUAUCAUGCAUUACACAUGAGGAUCACCCAUGUGCAGGAAAACUGCAUAUGAGAAGGCAGAUAGAUUGU [salish99_ss2_r3_066] (Eterna round: R96, puzzle: Same State 2)",
    "apparent KD of MS2 coat protein, µM": 0.411
  },
  {
    "Sequence Code": "UCAAUCAUGUAAGGAUAUGCAGCCGAAACGGCUGCAGAAGGUACUAUAAUUACAUGAGGAUCACCCAUGUUAUAAAAUAAAUAU [Mat - Same State NG 1 - JL mod - D80] (Eterna round: R96, puzzle: Same State NG 1)",
    "apparent KD of MS2 coat protein, µM": 0.16
  },
  {
    "Sequence Code": "GGAAUAUUUACAGGAUAUGAGUUGUAAAGUCGAUCAGAAGGGUAGGUGUCUUACACGGUGUGUUACAUGAGGAUCACCCAUGUU [SameState NG1 #20] (Eterna round: R96, puzzle: Same State NG 1)",
    "apparent KD of MS2 coat protein, µM": 0.215
  },
  {
    "Sequence Code": "GGUGUACAUGAGGAUCACCCAUGUCGACCGCUCACAGGAUAUUUAAUACAAACUGGUAGCGGAGAAGGGUGAGGAA [Oresbeve] (Eterna round: R96, puzzle: Same State 1)",
    "apparent KD of MS2 coat protein, µM": 0.188
  },
  {
    "Sequence Code": "CUGCUCGGGUGAGGAUAUGCCGCCGUUUCGGCUGCAGAAGGUGCUACGUUACAUGAGGAUCACCCAUGUCUCUGUUGUUUCGUU [salish99_SSNG1_r04_965] (Eterna round: R96, puzzle: Same State NG 1)",
    "apparent KD of MS2 coat protein, µM": 0.0622
  },
  {
    "Sequence Code": "GCAGGGCCGGGCCCUGCAGACAUGAGGAUCACCCAUGUAACACAGGAUAUGACUGGGAUACCUGGUUAGAAGGGUGCGAAAGAA [Ustivetice] (Eterna round: R96, puzzle: Same State NG 3)",
    "apparent KD of MS2 coat protein, µM": 0.0574
  },
  {
    "Sequence Code": "AAUAUUAAGGCGGACGUUAACCGCAACCGACAUGAGGAUCACCCAUGUGCUUCAAGCUCAGACAUCUCUUAUCGUCA [Arrizareat] (Eterna round: R96, puzzle: Sensor for hsa-mir-208a)",
    "apparent KD of MS2 coat protein, µM": 0.079
  },
  {
    "Sequence Code": "GCUCGCACGAUGACCCACAUGAGGAUCACCCAUGUGUGUGGGUAGGAUAUCUAGAUUAAGGAUGUAGAGAAGGGCCGAGCGAGC [SameState NG3 #23] (Eterna round: R96, puzzle: Same State NG 3)",
    "apparent KD of MS2 coat protein, µM": 0.6
  },
  {
    "Sequence Code": "GACCGCGAGGAAGGAUAUGGAGCCUUAUUGGCUCCAGAAGGUCCAUAAGGGACAUGAGGAUCACCCAUGUGGGUUGAAGCGGUC [Fiskers NG1ss - 35] (Eterna round: R96, puzzle: Same State NG 1)",
    "apparent KD of MS2 coat protein, µM": 0.16
  }
]
